- System: NCI-H522
- assay_notes: relative viability (nuclei count vs DMSO), 5 days (fraction); higher = more cells survive
- settings: first compound 2 µM
Categories are defined by ranges of relative viability, namely L: < 0.6; M: ≥ 0.6 and < 0.8; H: ≥ 0.8

compound | discrete_label
Cc1csc(=NC2CCCCC2)n1/N=C/c1ccc(O)c(O)c1O [MIM1] + CCNC(=O)c1noc(-c2cc(C(C)C)c(O)cc2O)c1-c1ccc(CN2CCOCC2)cc1 [Luminespib] (partner 0.01 µM) | H
CN1CCN(CCOc2cc(OC3CCOCC3)c3c(Nc4c(Cl)ccc5c4OCO5)ncnc3c2)CC1 [Saracatinib] + Nc1ncn([C@H]2C[C@H](O)[C@@H](CO)O2)c(=O)n1 [Decitabine] (partner 2 µM) | M
CN1CCN(CCOc2cc(OC3CCOCC3)c3c(Nc4c(Cl)ccc5c4OCO5)ncnc3c2)CC1 [Saracatinib] + O=C(c1cc(Cc2n[nH]c(=O)c3ccccc23)ccc1F)N1CCN(C(=O)C2CC2)CC1 [Olaparib] (partner 8 µM) | L
Cc1csc(=NC2CCCCC2)n1/N=C/c1ccc(O)c(O)c1O [MIM1] + Nc1ncn([C@H]2C[C@H](O)[C@@H](CO)O2)c(=O)n1 [Decitabine] (partner 2 µM) | M
Cc1csc(=NC2CCCCC2)n1/N=C/c1ccc(O)c(O)c1O [MIM1] + CC(=O)Nc1cccc(-n2c(=O)n(C3CC3)c(=O)c3c(Nc4ccc(I)cc4F)n(C)c(=O)c(C)c32)c1 [Trametinib] (partner 0.02 µM) | H
CN1CCN(CCOc2cc(OC3CCOCC3)c3c(Nc4c(Cl)ccc5c4OCO5)ncnc3c2)CC1 [Saracatinib] + CC(=O)Nc1cccc(-n2c(=O)n(C3CC3)c(=O)c3c(Nc4ccc(I)cc4F)n(C)c(=O)c(C)c32)c1 [Trametinib] (partner 0.02 µM) | L
CN1CCN(CCOc2cc(OC3CCOCC3)c3c(Nc4c(Cl)ccc5c4OCO5)ncnc3c2)CC1 [Saracatinib] + Nc1nc2[nH]cc(CCc3ccc(C(=O)N[C@@H](CCC(=O)O)C(=O)O)cc3)c2c(=O)[nH]1 [Pemetrexed] (partner 0.2 µM) | M
Cc1csc(=NC2CCCCC2)n1/N=C/c1ccc(O)c(O)c1O [MIM1] + Nc1nc2[nH]cc(CCc3ccc(C(=O)N[C@@H](CCC(=O)O)C(=O)O)cc3)c2c(=O)[nH]1 [Pemetrexed] (partner 0.2 µM) | H

====

- Tested on: RERF-LC-KJ
- assay_notes: relative viability (nuclei count vs DMSO), 5 days (fraction); higher = more cells survive
- settings: first compound 0.002 µM

molecule | relative viability
CCNC(=O)c1noc(-c2cc(C(C)C)c(O)cc2O)c1-c1ccc(CN2CCOCC2)cc1 [Luminespib] + CS(=O)(=O)N1CCN(Cc2cc3nc(-c4cccc5[nH]ncc45)nc(N4CCOCC4)c3s2)CC1 [Pictilisib] (partner 1 µM) | 0.665
CCNC(=O)c1noc(-c2cc(C(C)C)c(O)cc2O)c1-c1ccc(CN2CCOCC2)cc1 [Luminespib] + Cc1nc(NC(=O)N2CCC[C@H]2C(N)=O)sc1-c1ccnc(C(C)(C)C(F)(F)F)c1 [Alpelisib] (partner 2 µM) | 0.813
CCNC(=O)c1noc(-c2cc(C(C)C)c(O)cc2O)c1-c1ccc(CN2CCOCC2)cc1 [Luminespib] + CC1(C)CCC(c2ccc(Cl)cc2)=C(CN2CCN(c3ccc(C(=O)NS(=O)(=O)c4ccc(N[C@H](CCN5CCOCC5)CSc5ccccc5)c(S(=O)(=O)C(F)(F)F)c4)cc3)CC2)C1 [Navitoclax] (partner 0.5 µM) | 0.987
CCNC(=O)c1noc(-c2cc(C(C)C)c(O)cc2O)c1-c1ccc(CN2CCOCC2)cc1 [Luminespib] + CC(=O)c1c(C)c2cnc(Nc3ccc(N4CCNCC4)cn3)nc2n(C2CCCC2)c1=O [Palbociclib] (partner 0.5 µM) | 1.04
CCNC(=O)c1noc(-c2cc(C(C)C)c(O)cc2O)c1-c1ccc(CN2CCOCC2)cc1 [Luminespib] + N=C(N)NC(=N)NCCc1ccccc1 [Phenformin] (partner 250 µM) | 0.409
CCNC(=O)c1noc(-c2cc(C(C)C)c(O)cc2O)c1-c1ccc(CN2CCOCC2)cc1 [Luminespib] + CS(=O)(=O)CCNCc1ccc(-c2ccc3ncnc(Nc4ccc(OCc5cccc(F)c5)c(Cl)c4)c3c2)o1 [Lapatinib] (partner 2 µM) | 0.825
CCNC(=O)c1noc(-c2cc(C(C)C)c(O)cc2O)c1-c1ccc(CN2CCOCC2)cc1 [Luminespib] + O=C(CCCCCCC(=O)Nc1ccccc1)NO [Vorinostat] (partner 1 µM) | 0.624

Just for reference, the supplement of paper PMC10307832 is where these values come from.
